tested on: rodent lifetime carcinogenesis bioassay, tumor incidence TD50; test: carcinogenic potency in animals, long-term in vivo studies, CPDB compilation (AID 1745844); settings: rat; strain F344/DuCrj; females; in feed; site: mammary gland; lesion: adenoma; dosed 112 weeks; study length 112 weeks
Observation Type: TD50 (mg/kg/day)
Numbers only, in mg/kg/day.

The recorded TD50 for entry Cc1nc(N)cc2[nH]c3ccccc3c12 equals 76.2

* * *

tested on: rodent lifetime carcinogenesis bioassay, tumor incidence TD50; assay: carcinogenic potency in animals, long-term in vivo studies, CPDB compilation (AID 1745844); settings: mouse; strain dd; females; in feed; site: all sites; lesion: malignant lymphoma; dosed 104 weeks; study length 104 weeks
Observation Type: TD50 (mg/kg/day)
Numbers only, in mg/kg/day.

The recorded TD50 for entry Nc1cc(Cl)c(-c2cc(Cl)c(N)cc2Cl)cc1Cl equals 109

* * *

tested on: rodent lifetime carcinogenesis bioassay, tumor incidence TD50; assay: carcinogenic potency in animals, long-term in vivo studies, CPDB compilation (AID 1745844); conditions: mouse; strain B6C3F1; females; by gavage; site: mammary gland; lesion: adenocarcinoma, NOS + carcinoma, NOS; dosed 52 weeks; study length 82 weeks
Observation Type: TD50 (mg/kg/day)
One number for each entry, in mg/kg/day.

# C[C@]12CC[C@@H]3c4ccc(OC(=O)Cc5ccc(N(CCCl)CCCl)cc5)cc4CC[C@H]3[C@@H]1CC[C@@H]2OC(=O)Cc1ccc(N(CCCl)CCCl)cc1 with rodent lifetime carcinogenesis bioassay, tumor incidence TD50: TD50 is 12.8

* * *

test system: rodent lifetime carcinogenesis bioassay, tumor incidence TD50; test: carcinogenic potency in animals, long-term in vivo studies, CPDB compilation (AID 1745844); settings: mouse; strain Charles River CD1; females; in feed; site: lung; lesion: adenocarcinoma; dosed 109 weeks; study length 109 weeks
Calls of active or inactive are those of the source. No rule for the calls is given here.
Observation Type: TD50

The recorded TD50 for entry O=c1ccc2ccccc2o1 equals 3140 mg/kg/day (inactive)

* * *

test system: rodent lifetime carcinogenesis bioassay, tumor incidence TD50; experiment: carcinogenic potency in animals, long-term in vivo studies, CPDB compilation (AID 1745844); details: mouse; strain B6AKF1; males; oral dosing; site: all sites; lesion: reticulum-cell sarcoma; dosed 72 weeks; study length 72 weeks
Observation Type: TD50

The recorded TD50 for entry CCOC(N)=O equals 77.9 mg/kg/day

* * *

system: rodent lifetime carcinogenesis bioassay, tumor incidence TD50; assay: carcinogenic potency in animals, long-term in vivo studies, CPDB compilation (AID 1745844); conditions: rat; strain Fischer 344; females; in feed; site: liver; lesion: hepatocellular carcinoma; dosed 104 weeks; study length 104 weeks
Observation Type: TD50

cpd_smiles=CC(C)CCCCCCOC(=O)c1ccccc1C(=O)OCCCCCCC(C)C study_target="rodent lifetime carcinogenesis bioassay, tumor incidence TD50" observation_type=TD50 experimental_result="7980 mg/kg/day"

The recorded TD50 for entry Brc1cc(Br)c(-c2cc(Br)c(Br)cc2Br)cc1Br equals 8.22 mg/kg/day

* * *

system: rodent lifetime carcinogenesis bioassay, tumor incidence TD50; test: carcinogenic potency in animals, long-term in vivo studies, CPDB compilation (AID 1745844); details: rat; strain Fischer 344; females; in feed; site: all sites; lesion: mononuclear-cell leukemia; dosed 104 weeks; study length 105 weeks
Observation Type: TD50

The recorded TD50 for entry OCC(CO)(CBr)CBr equals 406 mg/kg/day

* * *

system: rodent lifetime carcinogenesis bioassay, tumor incidence TD50; test: carcinogenic potency in animals, long-term in vivo studies, CPDB compilation (AID 1745844); details: mouse; strain C57BL/10J; females; in feed; site: liver; lesion: several types; types named in the paper; dosed 97 weeks; study length 97 weeks
Observation Type: TD50

The recorded TD50 for entry CC(=O)O[C@]1(C(C)=O)CC[C@H]2[C@@H]3C=C(Cl)C4=CC(=O)[C@@H]5C[C@@H]5[C@]4(C)[C@H]3CC[C@@]21C equals 254 mg/kg/day

* * *

tested on: rodent lifetime carcinogenesis bioassay, tumor incidence TD50; test: carcinogenic potency in animals, long-term in vivo studies, CPDB compilation (AID 1745844); settings: mouse; strain Swiss albino; females; in drinking water; site: aorta and large arteries; lesion: leiomyosarcoma; dosed 121 weeks; study length 121 weeks
Observation Type: TD50

The recorded TD50 for entry NNc1ccc(C(=O)O)cc1 equals 1970 mg/kg/day

* * *

tested on: rodent lifetime carcinogenesis bioassay, tumor incidence TD50; test: carcinogenic potency in animals, long-term in vivo studies, CPDB compilation (AID 1745844); conditions: rat; strain Osborne-Mendel; females; in feed; site: mammary gland; lesion: fibroadenoma; dosed 80 weeks; study length 109 weeks
Observation Type: TD50 (mg/kg/day)
Numbers only, in mg/kg/day.

The recorded TD50 for entry CCOP(=S)(OCC)Oc1ccc([N+](=O)[O-])cc1 equals 2.07

* * *

system: rodent lifetime carcinogenesis bioassay, tumor incidence TD50; assay: carcinogenic potency in animals, long-term in vivo studies, CPDB compilation (AID 1745844); details: mouse; strain B6C3F1; males; in feed; site: any site (literature study); lesion: several types; types named in the paper; dosed 97 weeks; study length 97 weeks
Observation Type: TD50 (mg/kg/day)
Answers are plain numbers, in mg/kg/day.

The recorded TD50 for entry COc1ccc(C)cc1N equals 46.4

* * *

tested on: rodent lifetime carcinogenesis bioassay, tumor incidence TD50; test: carcinogenic potency in animals, long-term in vivo studies, CPDB compilation (AID 1745844); conditions: rat; strain Fischer 344; males; in feed; site: adrenal medulla; lesion: pheochromocytoma benign, bilateral + pheochromocytoma, malignant + pheochromocytoma, benign; dosed 99 weeks; study length 99 weeks
Observation Type: TD50 (mg/kg/day)
One number for each entry, in mg/kg/day.

The recorded TD50 for entry CCCCCCCC/C=C/CCCCCCCC(=O)OCCOCC(OCCO)C1OCC(OCCO)C1OCCO (stereo unspecified) equals 2580

* * *

tested on: rodent lifetime carcinogenesis bioassay, tumor incidence TD50; experiment: carcinogenic potency in animals, long-term in vivo studies, CPDB compilation (AID 1745844); conditions: mouse; strain OF1; males; in feed; site: lung; lesion: adenoma; dosed 74 weeks; study length 74 weeks
Activity calls are given as the source filed them. The rule behind the calls is not given here.
Observation Type: TD50

The recorded TD50 for entry CC(C)C[C@H]1C(=O)N2CCC[C@H]2[C@]2(O)O[C@](NC(=O)[C@@H]3C=C4c5cccc6[nH]c(Br)c(c56)C[C@H]4N(C)C3)(C(C)C)C(=O)N12 equals 618 mg/kg/day (inactive)

* * *

system: rodent lifetime carcinogenesis bioassay, tumor incidence TD50; assay: carcinogenic potency in animals, long-term in vivo studies, CPDB compilation (AID 1745844); conditions: mouse; strain B6C3F1; males; in feed; site: kidney; lesion: renal-cell adenoma; dosed 70 weeks; study length 84 weeks
Observation Type: TD50

The recorded TD50 for entry CCOc1ccc(NC(=O)CC(C)O)cc1 (stereo unspecified) equals 5580 mg/kg/day

* * *

tested on: rodent lifetime carcinogenesis bioassay, tumor incidence TD50; assay: carcinogenic potency in animals, long-term in vivo studies, CPDB compilation (AID 1745844); conditions: mouse; strain B6C3F1; males; in feed; site: any site (literature study); lesion: one or several types; types not named; dosed 104 weeks; study length 104 weeks
The source made the active and inactive calls. No rule for the calls is given here.
Observation Type: TD50

# CC(C)C(C(=O)OC(C#N)c1cccc(Oc2ccccc2)c1)c1ccc(Cl)cc1 (stereo unspecified) with rodent lifetime carcinogenesis bioassay, tumor incidence TD50: TD50 is 251 mg/kg/day (inactive)

* * *

test system: rodent lifetime carcinogenesis bioassay, tumor incidence TD50; assay: carcinogenic potency in animals, long-term in vivo studies, CPDB compilation (AID 1745844); conditions: rat; strain Wistar; females; in drinking water; site: liver; lesion: neoplastic nodule; dosed 187 weeks; study length 187 weeks
Exercise: for every item that follows, state its recorded TD50.

cpd_smiles=ClC(Cl)Br experimental_result="544 mg/kg/day"

Continue with the next molecule.
The recorded TD50 for entry ClC(Cl)Cl equals 883 mg/kg/day

* * *

test system: rodent lifetime carcinogenesis bioassay, tumor incidence TD50; experiment: carcinogenic potency in animals, long-term in vivo studies, CPDB compilation (AID 1745844); details: rat; strain Fischer 344; females; by gavage; site: liver; lesion: cholangiocarcinoma; dosed 40 weeks; study length 115 weeks
Observation Type: TD50

The recorded TD50 for entry O=NN(CCO)C(=O)NCCCl equals 4.38 mg/kg/day

* * *

tested on: rodent lifetime carcinogenesis bioassay, tumor incidence TD50; test: carcinogenic potency in animals, long-term in vivo studies, CPDB compilation (AID 1745844); conditions: rat; strain Fischer 344; females; in drinking water; site: nasal cavity; lesion: squamous-cell carcinoma; dosed 55 weeks; study length 105 weeks
Observation Type: TD50

The recorded TD50 for entry O=NN(CCO)CCO equals 4320 mg/kg/day

* * *

system: rodent lifetime carcinogenesis bioassay, tumor incidence TD50; test: carcinogenic potency in animals, long-term in vivo studies, CPDB compilation (AID 1745844); details: rat; strain Fischer 344; males; by gavage; site: liver; lesion: neoplastic nodule; dosed 78 weeks; study length 78 weeks
Observation Type: TD50

The recorded TD50 for entry COC(N)=O equals 494 mg/kg/day
